# Lookup of reported MIC keyed by entry
test system: Prevotella bivia; assay: In vitro evaluation of azole compounds, MIC; assay type: cell-based; conditions: one table line per isolate, read-out: MIC's of drug needed to inhibit the growth of organism
Write the number in µg/mL without appending the unit.

molecule="Clc1ccc(COC(Cn2ccnc2)c2ccc(Cl)cc2Cl)c(Cl)c1 (centres unmarked) [Miconazole]" target="Prevotella bivia" measure=MIC numeric_value=128

Lookup: Return reported MIC; argument: CCS(=O)(=O)CCn1c([N+](=O)[O-])cnc1C [Tinidazole]
Found: 1

Lookup: Return reported MIC; argument: CC(C)N1CCN(c2ccc(OCC3COC(Cn4cncn4)(c4ccc(Cl)cc4Cl)O3)cc2)CC1 (centres unmarked) [Terconazole]
Found: 256

Lookup: Return reported MIC; argument: Cc1ncc([N+](=O)[O-])n1CCO [Metronidazole]
Found: 1

* * *

test system: Prevotella disiens; test: In vitro evaluation of azole compounds, MIC; type: cell-based; settings: one table line per isolate, read-out: MIC's of drug needed to inhibit the growth of organism
# Lookup of reported MIC keyed by entry
Write the number in µg/mL without appending the unit.

compound="CC(C)N1CCN(c2ccc(OCC3COC(Cn4cncn4)(c4ccc(Cl)cc4Cl)O3)cc2)CC1 (stereo not shown)" target="Prevotella disiens" numeric_value=128
compound=Cc1ncc([N+](=O)[O-])n1CCO target="Prevotella disiens" numeric_value=0.5

Attention now turns to another entry.
Lookup: // lookup MIC | system=Prevotella disiens | key= Clc1ccc(COC(Cn2ccnc2)c2ccc(Cl)cc2Cl)c(Cl)c1 (stereo not shown)
Found: 64

* * *

test system: Mobiluncus mulieris
# Lookup of reported MIC keyed by entry
Write the number in µg/mL without appending the unit.

molecule="Clc1ccc(COC(Cn2ccnc2)c2ccc(Cl)cc2Cl)c(Cl)c1 (centres unmarked)" numeric_value=8
molecule=Cc1ncc([N+](=O)[O-])n1CCO numeric_value=4
molecule="CC(C)N1CCN(c2ccc(OCC3COC(Cn4cncn4)(c4ccc(Cl)cc4Cl)O3)cc2)CC1 (centres unmarked)" numeric_value=256

Attention now turns to another entry.
Lookup: // lookup MIC | system=Mobiluncus mulieris | key= `CCS(=O)(=O)CCn1c([N+](=O)[O-])cnc1C`
Found: 1

* * *

# Lookup of reported MIC keyed by entry
system: Prevotella melaninogenica; test: In vitro evaluation of azole compounds, MIC; type: cell-based; conditions: one table line per isolate, read-out: MIC's of drug needed to inhibit the growth of organism
Write the number in µg/mL without appending the unit.

Take a look at these entries with their results.
compound="Clc1ccc(COC(Cn2ccnc2)c2ccc(Cl)cc2Cl)c(Cl)c1 (stereo not shown) [Miconazole]" measure=MIC numeric_value=64
compound="CC(C)N1CCN(c2ccc(OCC3COC(Cn4cncn4)(c4ccc(Cl)cc4Cl)O3)cc2)CC1 (stereo not shown) [Terconazole]" measure=MIC numeric_value=64

Attention now turns to another entry.
Lookup: // lookup MIC | system=Prevotella melaninogenica | key= CCS(=O)(=O)CCn1c([N+](=O)[O-])cnc1C [Tinidazole]
Found: 2

* * *

system: Bacillus theta
MEASURE: MIC (µg/mL)
Write the number in µg/mL without appending the unit.

Take a look at these entries with their results.
molecule="Cc1ncc([N+](=O)[O-])n1CCO [Metronidazole]" target="Bacillus theta" measure=MIC numeric_value=2
molecule="Clc1ccc(COC(Cn2ccnc2)c2ccc(Cl)cc2Cl)c(Cl)c1 (centres unmarked) [Miconazole]" target="Bacillus theta" measure=MIC numeric_value=128

Lookup: // lookup MIC | system=Bacillus theta | key= CCS(=O)(=O)CCn1c([N+](=O)[O-])cnc1C [Tinidazole]
Found: 1

Lookup: // lookup MIC | system=Bacillus theta | key= CC(C)N1CCN(c2ccc(OCC3COC(Cn4cncn4)(c4ccc(Cl)cc4Cl)O3)cc2)CC1 (centres unmarked) [Terconazole]
Found: 256

Attribution: patent US20060105008A1
